Assay: Absorbance and fluorescence spectra of 5-R-UMP analogues
Assay type: physicochemical
Settings: 100 μM
quantity: Fluo Intensity at 100 μM (a.u.)
Answers are plain numbers, in a.u..

// solved cases for Fluo Intensity at 100 μM follow
O=c1[nH]c(=O)n([C@@H]2O[C@H](COP(=O)(O)O)[C@@H](O)[C@H]2O)cc1-c1ccccc1 [2a, 5-Phenyluridine-5′-monophosphate]: 40
O=c1[nH]c(=O)n([C@@H]2O[C@H](COP(=O)(O)O)[C@@H](O)[C@H]2O)cc1-c1ccco1 [2m, 5-(Furan-2-yl)-uridine-5′-monophosphate]: 497
O=c1[nH]c(=O)n([C@@H]2O[C@H](COP(=O)(O)O)[C@@H](O)[C@H]2O)cc1-c1ccc(C(F)(F)F)cc1: 5.3
CS(=O)(=O)c1cccc(-c2cn([C@@H]3O[C@H](COP(=O)(O)O)[C@@H](O)[C@H]3O)c(=O)[nH]c2=O)c1: 5.3

Each compound below has a recorded value; state its Fluo Intensity at 100 μM.
1. O=Cc1ccsc1-c1cn([C@@H]2O[C@H](COP(=O)(O)O)[C@@H](O)[C@H]2O)c(=O)[nH]c1=O
2. COc1ccc(-c2cn([C@@H]3O[C@H](COP(=O)(O)O)[C@@H](O)[C@H]3O)c(=O)[nH]c2=O)cc1
3. O=c1[nH]c(=O)n([C@@H]2O[C@H](COP(=O)(O)O)[C@@H](O)[C@H]2O)cc1-c1ccccc1O

[out]
1. 387
2. 603
3. 0.9

---

Assay: Quantum yield determination of UDP-Gal derivatives 3a-d
Format: physicochemical
Details: in H2O
What Quantum yield was measured for each of the following?

Reference set, count: 3
O=c1[nH]c(=O)n([C@@H]2O[C@H](COP(=O)(O)OP(=O)(O)O[C@H]3O[C@H](CO)[C@H](O)[C@H](O)[C@H]3O)[C@@H](O)[C@H]2O)cc1-c1ccccc1: <0.01
COc1ccc(-c2cn([C@@H]3O[C@H](COP(=O)(O)OP(=O)(O)O[C@H]4O[C@H](CO)[C@H](O)[C@H](O)[C@H]4O)[C@@H](O)[C@H]3O)c(=O)[nH]c2=O)cc1: 0.024
O=c1[nH]c(=O)n([C@@H]2O[C@H](COP(=O)(O)OP(=O)(O)O[C@H]3O[C@H](CO)[C@H](O)[C@H](O)[C@H]3O)[C@@H](O)[C@H]2O)cc1-c1ccco1: 0.04

Now for the molecule whose Quantum yield we want.
[in] Identify measured Quantum yield corresponding to O=Cc1ccc(-c2cn([C@@H]3O[C@H](COP(=O)(O)OP(=O)(O)O[C@H]4O[C@H](CO)[C@H](O)[C@H](O)[C@H]4O)[C@@H](O)[C@H]3O)c(=O)[nH]c2=O)s1
[out] 0.26

---

Give measured Emmax for each item. Keep answers brief.
Assay: Absorbance and fluorescence spectra of 5-R-UMP analogues
Assay type: physicochemical
Conditions: fluorescence emission
Numbers only, in nm.

In the examples that follow, each entry is paired with its recorded Emmax.
Cc1ccc(-c2cn([C@@H]3O[C@H](COP(=O)(O)O)[C@@H](O)[C@H]3O)c(=O)[nH]c2=O)cc1[N+](=O)[O-]: 434
O=c1[nH]c(=O)n([C@@H]2O[C@H](COP(=O)(O)O)[C@@H](O)[C@H]2O)cc1-c1ccc(Cl)cc1: 398
O=c1[nH]c(=O)n([C@@H]2O[C@H](COP(=O)(O)O)[C@@H](O)[C@H]2O)cc1-c1ccco1 [2m, 5-(Furan-2-yl)-uridine-5′-monophosphate]: 437
O=c1[nH]c(=O)n([C@@H]2O[C@H](COP(=O)(O)O)[C@@H](O)[C@H]2O)cc1-c1ccc2ccccc2c1 [2g, 5-(2-Naphtyl)-uridine-5′-monophosphate]: 450

Batch request: Emmax for each of the following molecules.
1. O=c1[nH]c(=O)n([C@@H]2O[C@H](COP(=O)(O)O)[C@@H](O)[C@H]2O)cc1I [compound 1, 5-Iodouridine-5′-monophosphate]
2. CC(C)(C)OC(=O)NCc1cccc(-c2cn([C@@H]3O[C@H](COP(=O)(O)O)[C@@H](O)[C@H]3O)c(=O)[nH]c2=O)c1

[out]
[377, 427]

---

Assay: Absorbance and fluorescence spectra of 5-R-UMP analogues
Type: physicochemical
Conditions: absorbance
quantity: λmax (nm)
One number for each entry, in nm.

Some molecules with recorded λmax:
O=Cc1ccsc1-c1cn([C@@H]2O[C@H](COP(=O)(O)O)[C@@H](O)[C@H]2O)c(=O)[nH]c1=O: 267
O=c1[nH]c(=O)n([C@@H]2O[C@H](COP(=O)(O)O)[C@@H](O)[C@H]2O)cc1-c1ccc(Cl)cc1: 281
COc1cncc(-c2cn([C@@H]3O[C@H](COP(=O)(O)O)[C@@H](O)[C@H]3O)c(=O)[nH]c2=O)c1: 289
CC(=O)c1ccc(-c2cn([C@@H]3O[C@H](COP(=O)(O)O)[C@@H](O)[C@H]3O)c(=O)[nH]c2=O)s1: 348
O=c1ccn([C@@H]2O[C@H](COP(=O)(O)O)[C@@H](O)[C@H]2O)c(=O)[nH]1 [UMP, reference compound]: 262
Cc1ccc(-c2cn([C@@H]3O[C@H](COP(=O)(O)O)[C@@H](O)[C@H]3O)c(=O)[nH]c2=O)cc1[N+](=O)[O-]: 279

Return reported λmax values for all items listed beneath this line.
1. O=c1[nH]c(=O)n([C@@H]2O[C@H](COP(=O)(O)O)[C@@H](O)[C@H]2O)cc1-c1ccccc1 [2a, 5-Phenyluridine-5′-monophosphate]
2. O=C(O)c1ccc(-c2cn([C@@H]3O[C@H](COP(=O)(O)O)[C@@H](O)[C@H]3O)c(=O)[nH]c2=O)cc1
3. O=c1[nH]c(=O)n([C@@H]2O[C@H](COP(=O)(O)O)[C@@H](O)[C@H]2O)cc1I [compound 1, 5-Iodouridine-5′-monophosphate]
4. O=Cc1ccc(-c2cn([C@@H]3O[C@H](COP(=O)(O)O)[C@@H](O)[C@H]3O)c(=O)[nH]c2=O)s1

[out]
[278, 283, 262, 351]

The following molecules each have a reported value; give each one's λmax.
1. O=Cc1ccc(-c2cn([C@@H]3O[C@H](COP(=O)(O)O)[C@@H](O)[C@H]3O)c(=O)[nH]c2=O)o1
2. O=c1[nH]c(=O)n([C@@H]2O[C@H](COP(=O)(O)O)[C@@H](O)[C@H]2O)cc1-c1cccc(O)c1
3. O=c1[nH]c(=O)n([C@@H]2O[C@H](COP(=O)(O)O)[C@@H](O)[C@H]2O)cc1-c1ccco1 [2m, 5-(Furan-2-yl)-uridine-5′-monophosphate]
4. O=c1[nH]c(=O)n([C@@H]2O[C@H](COP(=O)(O)O)[C@@H](O)[C@H]2O)cc1-c1ccc2ccccc2c1 [2g, 5-(2-Naphtyl)-uridine-5′-monophosphate]
5. O=c1[nH]c(=O)n([C@@H]2O[C@H](COP(=O)(O)O)[C@@H](O)[C@H]2O)cc1-c1ccc(C(F)(F)F)cc1
6. O=c1[nH]c(=O)n([C@@H]2O[C@H](COP(=O)(O)O)[C@@H](O)[C@H]2O)cc1-c1ccccc1O
7. CS(=O)(=O)c1cccc(-c2cn([C@@H]3O[C@H](COP(=O)(O)O)[C@@H](O)[C@H]3O)c(=O)[nH]c2=O)c1
8. COc1ccc(-c2cn([C@@H]3O[C@H](COP(=O)(O)O)[C@@H](O)[C@H]3O)c(=O)[nH]c2=O)cc1

[out]
348
285
314
221
280
273
278
279

[in] Kindly indicate its recorded λmax. Item: CC(C)(C)OC(=O)NCc1cccc(-c2cn([C@@H]3O[C@H](COP(=O)(O)O)[C@@H](O)[C@H]3O)c(=O)[nH]c2=O)c1
[out] 281

---

Target: Streptococcus thermophilus UDP-Gal 4′-epimerase (GalE) (Streptococcus thermophilus)
Sequence (P21977 whole entry): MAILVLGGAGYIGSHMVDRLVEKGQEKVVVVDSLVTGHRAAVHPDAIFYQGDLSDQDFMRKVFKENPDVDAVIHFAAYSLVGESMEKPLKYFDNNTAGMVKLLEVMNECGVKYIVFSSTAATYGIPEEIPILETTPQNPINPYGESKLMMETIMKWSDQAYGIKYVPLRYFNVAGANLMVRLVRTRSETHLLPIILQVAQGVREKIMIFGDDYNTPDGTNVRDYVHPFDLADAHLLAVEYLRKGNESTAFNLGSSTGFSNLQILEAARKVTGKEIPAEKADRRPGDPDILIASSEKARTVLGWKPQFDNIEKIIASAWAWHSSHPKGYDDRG
quantity: Ki (µM)
Give bare numbers, in µM.

[in] Provide Ki, system Streptococcus thermophilus UDP-Gal 4′-epimerase (GalE) (Streptococcus thermophilus), entry O=Cc1ccc(-c2cn([C@@H]3O[C@H](COP(=O)(O)OP(=O)(O)CC[C@H]4O[C@H](CO)[C@H](O)[C@H](O)[C@H]4O)[C@@H](O)[C@H]3O)c(=O)[nH]c2=O)s1 [compound 2, phosphate]
[out] 426

---

Assay: Absorbance and fluorescence spectra of 5-R-UMP analogues
Format: physicochemical
Settings: 100 μM
For each of the compounds below, state its Fluo Intensity at 100 μM.

Would you please look over these solved cases?
O=c1[nH]c(=O)n([C@@H]2O[C@H](COP(=O)(O)O)[C@@H](O)[C@H]2O)cc1-c1ccc(Cl)cc1: 78 a.u.
O=Cc1ccc(-c2cn([C@@H]3O[C@H](COP(=O)(O)O)[C@@H](O)[C@H]3O)c(=O)[nH]c2=O)o1: 640 a.u.
COc1cncc(-c2cn([C@@H]3O[C@H](COP(=O)(O)O)[C@@H](O)[C@H]3O)c(=O)[nH]c2=O)c1: 74.8 a.u.

Lab note: each compound below needs its Fluo Intensity at 100 μM filled in.
1. O=C(O)c1ccc(-c2cn([C@@H]3O[C@H](COP(=O)(O)O)[C@@H](O)[C@H]3O)c(=O)[nH]c2=O)cc1
2. O=c1[nH]c(=O)n([C@@H]2O[C@H](COP(=O)(O)O)[C@@H](O)[C@H]2O)cc1-c1ccc2ccccc2c1 [2g, 5-(2-Naphtyl)-uridine-5′-monophosphate]
3. CC(C)(C)OC(=O)NCc1cccc(-c2cn([C@@H]3O[C@H](COP(=O)(O)O)[C@@H](O)[C@H]3O)c(=O)[nH]c2=O)c1
4. Cc1ccc(-c2cn([C@@H]3O[C@H](COP(=O)(O)O)[C@@H](O)[C@H]3O)c(=O)[nH]c2=O)cc1[N+](=O)[O-]

[out]
["17.6 a.u.", "32.2 a.u.", "11.6 a.u.", "6.7 a.u."]
